test.system: Phosphatidylinositol 3-kinase catalytic subunit type 3 (Homo sapiens, UniProt Q8NEB9)
Sequence (Q8NEB9 whole entry): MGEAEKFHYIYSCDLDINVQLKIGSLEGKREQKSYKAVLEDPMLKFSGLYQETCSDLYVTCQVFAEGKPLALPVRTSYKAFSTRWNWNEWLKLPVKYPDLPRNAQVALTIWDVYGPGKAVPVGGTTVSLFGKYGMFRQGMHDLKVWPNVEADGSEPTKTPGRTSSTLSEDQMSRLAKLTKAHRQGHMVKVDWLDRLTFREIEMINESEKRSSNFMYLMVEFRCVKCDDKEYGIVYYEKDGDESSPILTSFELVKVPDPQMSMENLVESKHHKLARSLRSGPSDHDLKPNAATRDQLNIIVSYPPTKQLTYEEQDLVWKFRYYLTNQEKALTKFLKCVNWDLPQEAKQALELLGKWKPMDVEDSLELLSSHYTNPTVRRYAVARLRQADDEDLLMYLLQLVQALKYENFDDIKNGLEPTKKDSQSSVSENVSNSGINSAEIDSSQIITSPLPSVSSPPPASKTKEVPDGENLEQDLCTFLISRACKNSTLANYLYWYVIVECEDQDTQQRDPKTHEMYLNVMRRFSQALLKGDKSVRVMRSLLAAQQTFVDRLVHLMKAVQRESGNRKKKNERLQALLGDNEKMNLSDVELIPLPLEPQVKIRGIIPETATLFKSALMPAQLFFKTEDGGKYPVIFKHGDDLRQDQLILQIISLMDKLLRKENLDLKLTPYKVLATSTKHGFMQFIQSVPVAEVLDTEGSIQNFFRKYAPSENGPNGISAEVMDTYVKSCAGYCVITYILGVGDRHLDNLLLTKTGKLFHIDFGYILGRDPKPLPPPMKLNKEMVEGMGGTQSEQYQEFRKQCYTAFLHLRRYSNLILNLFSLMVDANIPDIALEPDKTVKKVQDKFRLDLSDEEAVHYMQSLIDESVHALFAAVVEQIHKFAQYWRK
test.protocol: Vps34 Biochemical Assay: Dilution series of compounds of the invention were prepared in DMSO at 100 times the final assay concentration (n1=n0/3 in 10 points). The compounds were further diluted to 4 times the assay concentration in assay buffer (Life technologies buffer Q, PV5125, diluted 5 times supplemented with 2 mM DTT and 2 mM MnCl2). 2.5 μl of the diluted compounds were added to a 384 well assay plate followed by 2.5 μl of 16.5 nM Vps34 enzyme (Life technologies, PV5126). Enzyme and compounds were pre-incubated at rt for 15 min. Then 5 μl of substrate mix containing 20 μM ATP (Life technologies, PV3227) and 200 μM PI:PS substrate (Life technologies, PV5122) in assay buffer was added to the wells containing compound and enzyme. Mixing was performed by pipetting several times. The reaction was incubated at room temperature for 1 h. Then 5 μl stop-detection mix, prepared as described in the Adapta kinase assay kit instructions (Life technologies, PV5099) containing Adapta Eu-anti-ADP antibody (2.3 nM), Alexa Fluor 647 ADP tracer (9 nM) and EDTA (30 mM) in TR-FRET buffer, was added to quench the reaction. Mixing was performed by pipetting several times. The assay plate was then incubated at room temperature for 30 min and read with Artemis micro plate reader. Percent inhibition of the compounds as compared to DMSO treated control samples was calculated. By the use of Dotmatics software compound concentration versus percent inhibition was fitted to generate IC50 values.
pIC50: −log10 of the molar value.
Would you mind telling me the reported pIC50 of each entry?

Would you please look over these solved cases?
• C[C@@H]1COCCN1c1cc(N2CCN(S(=O)(=O)C3CC3)CC2C(F)(F)F)[nH]c(=O)c1 (stereo partly drawn) = > 8.30
• C[C@@H]1COCCN1c1cc(N2CCN(S(=O)(=O)N3CCOCC3)CC2C(F)(F)F)[nH]c(=O)c1 (stereo partly drawn) = > 8.30

Kindly consider the entry below.
The recorded pIC50 with Phosphatidylinositol 3-kinase catalytic subunit type 3 (Homo sapiens, UniProt Q8NEB9) for C[C@@H]1COCCN1c1cc(N2CCN(S(=O)(=O)c3ccnn3C)CC2C(F)(F)F)[nH]c(=O)c1 (stereo partly drawn) was > 8.30
